Entry source: paper PMC6255377

System: P. falciparum 3D7 strain, chloroquine sensitive
procedure_text: In vitro antimalarial activity screening (SYBR Green I micromethod)
Type: cell-based
experimental_conditions: Plasmodium falciparum, 3D7; Table 1; 48 h incubation; mean of two experiments in triplicate; read-out: P. falciparum 3D7 IC50
Assign labels as follows, please: 1 (yes) for IC50 below 1 µM; 0 (no) for IC50 equal to or exceeding 1 µM.

Study these solved cases before continuing.
| molecule | group |
| --- | --- |
| OC(CCN1CCN(c2cccc3c2OCCO3)CC1)c1csc2ccc(F)cc12 (stereo not drawn) [Compound 27] | 1 (yes) |
| COc1ccccc1N1CCN(CCC(O)c2csc3ccccc23)CC1 (stereo not drawn) [Compound 13] | 0 (no) |
| OC(CCN1CCN(c2cnc3ccccc3n2)CC1)c1csc2ccccc12 (stereo not drawn) [Compound 35] | 1 (yes) |
| COc1ccccc1N1CCN(CCC(=O)c2csc3ccc(F)cc23)CC1 [Compound 2] | 0 (no) |
| O=[N+]([O-])c1ccc(N[C@@H]2CCN(CCC(O)c3csc4ccccc34)C2)c(C(F)(F)F)c1 (stereo partly drawn) [Compound 29] | 0 (no) |
| COc1ccccc1N1CCN(CCC(O)c2csc3ccc(F)cc23)CC1 (stereo not drawn) [Compound 15] | 1 (yes) |

Exam item: Please determine if O=[N+]([O-])c1ccc(N2CC[C@H](NCCC(O)c3csc4ccccc34)C2)c(C(F)(F)F)c1 (stereo partly drawn) [Compound 30] is below 1 µM in terms of IC50.
Marked response: 1 (yes)

Exam item: Please do the same for Cc1ccc2cccc(N3CCN(CCC(O)c4csc5ccccc45)CC3)c2n1 (stereo not drawn) [Compound 22] as well.
Marked response: 1 (yes)

----------
Tested on: P. falciparum 3D7 strain, chloroquine sensitive
procedure_text: In vitro antimalarial activity screening (SYBR Green I micromethod)
Format: cell-based
experimental_conditions: Plasmodium falciparum, 3D7; Table 1; 48 h incubation; mean of two experiments in triplicate; read-out: P. falciparum 3D7 IC50
property_label: IC50 (µM)
Express your answer in µM, writing the number without its unit.

Example compounds with recorded IC50:
| compound | IC50 / µM |
| --- | --- |
| Cc1ccc2cccc(N3CCN(CCC(O)c4csc5ccc(F)cc45)CC3)c2n1 (centres unmarked) | 0.38 |
| OC(CCN1CCN(c2cccc3[nH]ccc23)CC1)c1csc2ccccc12 (centres unmarked) | 6.99 |

Exam item: Which measured IC50 belongs to O=[N+]([O-])c1ccc(N2CCN(CCC(O)c3csc4ccccc34)CC2)c(C(F)(F)F)c1 (centres unmarked) , tested on P. falciparum 3D7 strain, chloroquine sensitive?
Marked response: 0.68

Exam item: For O=[N+]([O-])c1ccc(N2CCCN(CCC(O)c3csc4ccccc34)CC2)cc1 (centres unmarked) then?
Marked response: 3.43

----------
Test system: P. falciparum 3D7 strain, chloroquine sensitive
procedure_text: In vitro antimalarial activity screening (SYBR Green I micromethod)
Assay type: cell-based
experimental_conditions: Plasmodium falciparum, 3D7; Table 1; 48 h incubation; mean of two experiments in triplicate; read-out: P. falciparum 3D7 IC50
IC50 values, listed per item

| compound | IC50 |
| --- | --- |
| O=C(CCN1CC[C@@H](Nc2ccc([N+](=O)[O-])cc2C(F)(F)F)C1)c1csc2ccccc12 | > 20 µM |

Exam item: Request the reported IC50 associated with OC(CCN1CCN(c2cccc3cccnc23)CC1)c1csc2ccccc12 (stereo not shown)
Marked response: 2.15 µM

Exam item: # iterate: O=C(CCNC1CCN(c2ccc([N+](=O)[O-])cc2)CC1)c1csc2ccccc12
Marked response: > 20 µM

Exam item: O=C(CCN1CCN(c2ccc([N+](=O)[O-])cc2C(F)(F)F)CC1)c1csc2ccccc12 , same question.
Marked response: > 20 µM
